# Tested on: HeLa Kyoto;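 further: HeLa Kyoto cells arrested at G1/S by double thymidine block, proteins quantified by TMT10plex mass spectrometry in mild NP-40 versus SDS extracts, three biological replicates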
# Protocol details: solubility in G1/S (NP-40 vs SDS abundance) (log2 ratio); higher = more soluble
# Protocol conditions: cell cycle stage: G1/S
Reported endpoint: solubility in G1/S (log2)
Numbers only.

// known answers, use as guide
MSGEPGQTSVAPPPEEVEPGSGVRIVVEYCEPCGFEATYLELASAVKEQYPGIEIESRLGGTGAFEIEINGQLVFSKLENGGFPYEKDLIEAIRRASNGETLEKITNSRPPCVIL [MIEN1]; 0.353
MPVERMRMRPWLEEQINSNTIPGLKWLNKEKKIFQIPWMHAARHGWDVEKDAPLFRNWAIHTGKHQPGVDKPDPKTWKANFRCAMNSLPDIEEVKDKSIKKGNNAFRVYRMLPLSERPSKKGKKPKTEKEDKVKHIKQEPVESSLGLSNGVSDLSPEYAVLTSTIKNEVDSTVNIIVVGQSHLDSNIENQEIVTNPPDICQVVEVTTESDEQPVSMSELYPLQISPVSSYAESETTDSVPSDEESAEGRPHWRKRNIEGKQYLSNMGTRGSYLLPGMASFVTSNKPDLQVTIKEESNPVPYNSSWPPFQDLPLSSSMTPASSSSRPDRETRASVIKKTSDITQARVKSC [IRF2]; 0.0934
MFCVTPPELETKMNITKGGLVLFSANSNSSCMELSKKIAERLGVEMGKVQVYQEPNRETRVQIQESVRGKDVFIIQTVSKDVNTTIMELLIMVYACKTSCAKSIIGVIPYFPYSKQCKMRKRGSIVSKLLASMMCKAGLTHLITMDLHQKEIQGFFNIPVDNLRASPFLLQYIQEEIPDYRNAVIVAKSPASAKRAQSFAERLRLGIAVIHGEAQDAESDLVDGRHSPPMVRSVAAIHPSLEIPMLIPKEKPPITVVGDVGGRIAIIVDDIIDDVDSFLAAAETLKERGAYKIFVMATHGLLSSDAPRRIEESAIDEVVVTNTIPHEVQKLQCPKIKTVDISMILSEAIRRIHNGESMSYLFRNIGLDD [PRPSAP2]; 0.117

Please look at the items below and tell me solubility in G1/S (log2) for each one, in order.
1. MAQKRPACTLKPECVQQLLVCSQEAKKSAYCPYSHFPVGAALLTQEGRIFKGCNIENACYPLGICAERTAIQKAVSEGYKDFRAIAIASDMQDDFISPCGACRQVMREFGTNWPVYMTKPDGTYIVMTVQELLPSSFGPEDLQKTQ [CDA]
2. MFVELNNLLNTTPDRAEQGKLTLLCDAKTDGSFLVHHFLSFYLKANCKVCFVALIQSFSHYSIVGQKLGVSLTMARERGQLVFLEGLKSAVDVVFQAQKEPHPLQFLREANAGNLKPLFEFVREALKPVDSGEARWTYPVLLVDDLSVLLSLGMGAVAVLDFIHYCRATVCWELKGNMVVLVHDSGDAEDEENDILLNGLSHQSHLILRAEGLATGFCRDVHGQLRILWRRPSQPAVHRDQSFTYQYKIQDKSVSFFAKGMSPAVL [ELP6]
3. MAAAGAPDGMEEPGMDTEAETVATEAPARPVNCLEAEAAAGAAAEDSGAARGSLQPAPAQPPGDPAAQASVSNGEDAGGGAGRELVDLKIIWNKTKHDVKFPLDSTGSELKQKIHSITGLPPAMQKVMYKGLVPEDKTLREIKVTSGAKIMVVGSTINDVLAVNTPKDAAQQDAKAEENKKEPLCRQKQHRKVLDKGKPEDVMPSVKGAQERLPTVPLSGMYNKSGGKVRLTFKLEQDQLWIGTKERTEKLPMGSIKNVVSEPIEGHEDYHMMAFQLGPTEASYYWVYWVPTQYVDAIKDTVLGKWQYF [UBFD1]

1: 0.37; 2: -0.082; 3: 0.522
